- SYSTEM_NAME: High affinity cAMP-specific and IBMX-insensitive 3',5'-cyclic phosphodiesterase 8A (Homo sapiens, UniProt O60658)
- Sequence (O60658 whole entry): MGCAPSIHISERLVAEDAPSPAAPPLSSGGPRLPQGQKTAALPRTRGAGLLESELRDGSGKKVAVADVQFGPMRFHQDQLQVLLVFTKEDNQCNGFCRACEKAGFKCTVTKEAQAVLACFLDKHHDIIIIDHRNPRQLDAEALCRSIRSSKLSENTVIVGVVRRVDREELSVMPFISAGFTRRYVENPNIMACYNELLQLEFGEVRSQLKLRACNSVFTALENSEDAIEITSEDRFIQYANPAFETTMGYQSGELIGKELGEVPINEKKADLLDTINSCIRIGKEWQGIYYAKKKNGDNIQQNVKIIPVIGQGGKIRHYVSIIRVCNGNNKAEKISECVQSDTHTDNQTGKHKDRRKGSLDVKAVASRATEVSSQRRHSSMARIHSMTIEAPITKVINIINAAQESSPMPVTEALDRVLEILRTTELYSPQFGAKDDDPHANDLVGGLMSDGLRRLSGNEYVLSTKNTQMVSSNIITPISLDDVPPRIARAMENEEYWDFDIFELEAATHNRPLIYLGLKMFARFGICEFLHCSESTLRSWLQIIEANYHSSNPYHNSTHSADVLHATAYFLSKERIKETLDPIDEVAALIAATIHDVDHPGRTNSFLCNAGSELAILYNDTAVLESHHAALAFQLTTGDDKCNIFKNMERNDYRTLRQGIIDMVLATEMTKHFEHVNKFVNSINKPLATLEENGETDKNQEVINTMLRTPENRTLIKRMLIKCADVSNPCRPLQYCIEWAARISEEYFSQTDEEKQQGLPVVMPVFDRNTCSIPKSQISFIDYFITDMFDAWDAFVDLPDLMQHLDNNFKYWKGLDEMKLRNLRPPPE
Provide the recorded pIC50 for the entries that follow.
Numbers only, as −log10 of the molar value.

Answered cases to consult:
# COMPOUND, pIC50
data = [
    ("COc1ccc(C(C)=NOC(N)=O)cc1OC1CCCC1", 3.92),
    ("CCCc1nc(C)c2c(=O)[nH]c(-c3cc(S(=O)(=O)N4CCN(CC)CC4)ccc3OCC)nn12", 4.24),
    ("COc1ccc(C2(C#N)CCC(C(=O)O)CC2)cc1OC1CCCC1 (centres undefined)", 5.15),
]

Now for a further compound.
Entry `COc1cc(-c2ccc(=O)[nH]n2)ccc1OC(F)F` : reported pIC50 = ?
3.80
